system: HOP-92 NSCLC; experiment: NCI tumour cell line growth inhibition, 48 h

{"MOLECULE": "CCOP(=O)(OCC)/C(C#N)=C\\c1ccsc1", "TARGET OR SYSTEM": "HOP-92 NSCLC", "TGI": "> 100 µM"}
{"MOLECULE": "COc1ccc(OC)c(NC(=O)c2cccc(NC3=C(Cl)C(=O)N(Cc4ccccc4)C3=O)c2)c1", "TARGET OR SYSTEM": "HOP-92 NSCLC", "TGI": "> 100 µM"}
{"MOLECULE": "O=C(OCC1CCCN2CCCCC12)c1cccnc1 (stereo unspecified)", "TARGET OR SYSTEM": "HOP-92 NSCLC", "TGI": "> 100 µM"}
{"MOLECULE": "Cc1c(-c2coc(-c3ccccc3)n2)c(=O)n(-c2ccccc2)n1C", "TARGET OR SYSTEM": "HOP-92 NSCLC", "TGI": "> 100 µM"}
{"MOLECULE": "CCNc1cc2oc(=O)cc(C(F)(F)F)c2cc1C", "TARGET OR SYSTEM": "HOP-92 NSCLC", "TGI": "> 100 µM"}
{"MOLECULE": "N/C(=N\\NC(=O)c1nc2ccccc2s1)c1ccccn1", "TARGET OR SYSTEM": "HOP-92 NSCLC", "TGI": "> 100 µM"}

* * *

test system: HS 578T breast; test: NCI tumour cell line growth inhibition, 48 h
A collection of molecules and their measured TGI

{"MOLECULE": "COC12C=C/C(=C(/C(=O)OCCSc3ccnn3C)C(=O)CCCCCCCCC3(OC)C=C/C(=C(/C(=O)OCCSc4ccnn4C)C(=O)CCCCCCCC1)O3)O2", "TGI": "> 32.5 µM"}
{"MOLECULE": "CC(=Nc1ccccc1)C1=C(O)C(Cc2cccc(F)c2)NC1=O (stereo unspecified)", "TGI": "> 100 µM"}
{"MOLECULE": "C[C@]12CC[C@@H]3c4ccc(O)cc4CC[C@H]3[C@@H]1CC[C@@H]2NS(=O)(=O)c1cccc(Cl)c1", "TGI": "13.1 µM"}
{"MOLECULE": "Cc1ccc(-c2c(C#N)[n+](=O)c3cc(F)c(F)cc3n2[O-])cc1", "TGI": "> 100 µM"}
{"MOLECULE": "O=C(O)CNc1ccc(Cl)c(Cl)c1", "TGI": "> 100 µM"}
{"MOLECULE": "N#C/C(=C/n1c(=S)[nH]c2ccccc21)C(N)=O", "TGI": "> 100 µM"}
{"MOLECULE": "NC(=S)Nc1ccc2c(c1)oc1ccccc12", "TGI": "> 100 µM"}
{"MOLECULE": "C/C(=N/NC(=S)N(C)C)c1ccccc1O", "TGI": "> 100 µM"}
{"MOLECULE": "N#C/C=c1/c2ccccc2n2nc3ccccc3c12", "TGI": "> 100 µM"}
{"MOLECULE": "C=C(C)[C@@H]1C/C=C(/CO)CC[C@H]2O[C@]2(C)CC/C=C(\\C)CC1", "TGI": "38.7 µM"}
{"MOLECULE": "COc1ccc(C(C#N)=C2C=CC(=NO)C=C2)cc1", "TGI": "20.3 µM"}
{"MOLECULE": "CC/C=C\\C[C@H](O)C/C=C1/C(=O)C=C[C@@H]1C/C=C\\CCCC(=O)OC(C)C", "TGI": "41.2 µM"}
{"MOLECULE": "CC(C)NCC(O)c1ccc(O)c2ncccc12 (stereo unspecified)", "TGI": "> 100 µM"}
{"MOLECULE": "Cc1cc(C(=O)Nc2cc(Oc3ccc4nc(NC(=O)C5CC5)cn4n3)ccc2C)n(C)n1", "TGI": "> 10 µM"}
{"MOLECULE": "O=C1C(C(c2ccc([N+](=O)[O-])cc2)N2CCOCC2)=C(O)C(c2ccccc2)N1c1ccccc1 (stereo unspecified)", "TGI": "> 10 µM"}
{"MOLECULE": "O=P(O)(O)OCC1OC(n2cnc3c(NCc4ccco4)ncnc32)C(O)C1O (stereo unspecified)", "TGI": "7.17 µM"}
{"MOLECULE": "O=C(O)C(Br)C(Br)C(=O)O (stereo unspecified)", "TGI": "> 100 µM"}
{"MOLECULE": "Clc1ccccc1[C@@H]1C[C@@H]2Cc3cc(Br)c4ccccc4c3N1O2", "TGI": "8.82 µM"}
{"MOLECULE": "CC(=O)NNC(=S)/N=C\\c1c(O)c2ccccc2oc1=O", "TGI": "> 100 µM"}
{"MOLECULE": "Cn1c(=O)c2c(nc3n2CCC(=O)N3CCCCl)n(C)c1=O", "TGI": "> 100 µM"}
{"MOLECULE": "CC(=O)NNc1nc(C)c(C(/C=C/c2ccc([N+](=O)[O-])cc2)=N/NC(N)=O)s1", "TGI": "> 100 µM"}

Values were extracted from PubChem BioAssay (NCI).
